# target: cloned human or rodent CNS receptors, channels, and transporters (PDSP panel) (Homo sapiens)
# Construct: expressed in transfected cells
# protocol details: PDSP GPCR panel primary binding assays at 10 μM
# condition description: Receptor D2; primary assay, 10 μM
# Protocol: GPCR panel: Screening against the receptors within the PDSP panel offers an assessment of off-target pharmacological activity at cloned human or rodent CNS receptors, channels, and transporters that could confound CNS-related phenotypes. A total of 46–47 primary binding assays were run in quadruplicate on these compounds at 10 μM, with follow-up secondary binding assays in 11-point dose-response in triplicate for select compounds versus select receptors. […]
experimental readout: Inhibition 3 (%)

[[record]]
compound = "CCCCNc1ncc2c(-c3ccc(CN4CCN(C)CC4)cc3)cn([C@H]3CC[C@H](O)CC3)c2n1 [UNC2025C, UNC2025]"
recorded_value = 2.76

[[record]]
compound = "O=c1oc2ccccc2cc1-c1cn2cc(Cc3ccc(F)cc3)sc2n1 [UNC10302680A, iMDK]"
recorded_value = -2.59

[[record]]
compound = "Cl.NC(=O)c1cnc(N[C@@H]2CCCC[C@@H]2N)nc1Nc1cccc(-n2nccn2)c1 [UNC10302682A, P505-15 (PRT06207 HCl)]"
recorded_value = 3.54

[[record]]
compound = "c1cn2cc(-c3ccc4cn[nH]c4c3)nc(Nc3ccc(N4CCOCC4)cc3)c2n1 [UNC10302678A, Entospletinib (GS-9973)]"
recorded_value = -1.13


----------
# target: cloned human or rodent CNS receptors, channels, and transporters (PDSP panel) (Homo sapiens)
# Construct: expressed in transfected cells
# protocol details: PDSP GPCR panel primary binding assays at 10 μM
# condition description: D5; primary assay, replicate 2
The following compounds are shown together with reported Inhibition 2 values.
experimental readout: Inhibition 2 (%)

[[record]]
compound = "CNc1nc(C)nc(N[C@H]2CCC[C@@H](C(=O)NCc3ccc(C#N)cc3C(F)(F)F)C2)n1 [UNC10302679A, GSK2256294A]"
experimental_readout = "Inhibition 2"
value_unit = "%"
recorded_value = -8.1

[[record]]
compound = "O=C(NC1CC1)C(=O)C(Cc1ccccc1)NC(=O)[C@H]1CCC(=O)N1Cc1ccccc1 (stereo partly shown) [UNC10302676A, ABT-957 (Alicapistat)]"
experimental_readout = "Inhibition 2"
value_unit = "%"
recorded_value = 3.82

[[record]]
compound = "CC(=O)N1CCC(NC(=O)NC23CC4CC(CC(C4)C2)C3)CC1 [UNC10302683A, AR9281]"
experimental_readout = "Inhibition 2"
value_unit = "%"
recorded_value = -13.14

[[record]]
compound = "CCC(=O)N1CCC(NC(=O)Nc2ccc(OC(F)(F)F)cc2)CC1 [UNC10302681A, TPPU]"
experimental_readout = "Inhibition 2"
value_unit = "%"
recorded_value = -1.22


----------
# target: cloned human or rodent CNS receptors, channels, and transporters (PDSP panel) (Homo sapiens)
# Construct: expressed in transfected cells
# protocol details: PDSP GPCR panel primary binding assays at 10 μM
# condition description: 5-HT2A; primary assay, replicate 1
experimental readout: Inhibition 1 (%)

[[record]]
molecule = "CC(=O)N1CCC(NC(=O)NC23CC4CC(CC(C4)C2)C3)CC1 [UNC10302683A, AR9281]"
experimental_readout = "Inhibition 1"
recorded_value = -2.98

[[record]]
molecule = "O=C(NC1CC1)C(=O)C(Cc1ccccc1)NC(=O)[C@H]1CCC(=O)N1Cc1ccccc1 (stereo partly shown) [UNC10302676A, ABT-957 (Alicapistat)]"
experimental_readout = "Inhibition 1"
recorded_value = 6.22

[[record]]
molecule = "CNc1nc(C)nc(N[C@H]2CCC[C@@H](C(=O)NCc3ccc(C#N)cc3C(F)(F)F)C2)n1 [UNC10302679A, GSK2256294A]"
experimental_readout = "Inhibition 1"
recorded_value = 5.24

[[record]]
molecule = "CCC(=O)N1CCC(NC(=O)Nc2ccc(OC(F)(F)F)cc2)CC1 [UNC10302681A, TPPU]"
experimental_readout = "Inhibition 1"
recorded_value = 0.31


From: paper PMC9005681
